- protocol_details: Cytotoxicity against mouse L929 cells
- Format: cell-based
- conditions_used: read-out: CT50 (the source's name)
Binary call on CC50 with cut-off 300 µg/mL: strictly below means TRUE, and equality or higher means FALSE.

chemical_structure	answer_label
CC(C)(CCCS(=O)(=O)O)N(Cl)Cl	FALSE
CC(C)(CP(=O)(O)O)N(Cl)Cl	TRUE
CC(C)(CCS(=O)(=O)O)N(Cl)Cl	FALSE
CC(C)(CC(=O)OCCS(=O)(=O)O)N(Cl)Cl	TRUE
CCOP(=O)(O)CC(C)(C)N(Cl)Cl	TRUE
CC(C)(CS(=O)(=O)[O-])N(Cl)Cl.[Na+]	FALSE
CC(C)(COC(=O)CCS(=O)(=O)O)N(Cl)Cl	TRUE
CC(C)(CS(=O)(=O)O)C(=O)OCC(C)(C)N(Cl)Cl	FALSE
CC(C)(CS(=O)(=O)CCS(=O)(=O)O)N(Cl)Cl	FALSE
